B1: r4_43_TrROS_Hall (parent)
chain: DLVTIKVPLENLEEIKKAAEKAGFKIVSISYDKENKEVTIVIEKKK

- Variants of: B1
- test summary: folding stability dG (cDNA display proteolysis); higher = more stable
- condition info: PBS, room temperature
A collection of variants and their measured folding stability dG

Worked cases, folding stability dG given:
> print(dat)
   mutant        property.label  measured.value
1    I29T  folding stability dG   3.56 kcal/mol
2    G23Y  folding stability dG   3.44 kcal/mol
3     T4D  folding stability dG   2.98 kcal/mol

folding stability dG lookup needed for Y31V , thanks.
3.47 kcal/mol

folding stability dG lookup needed for E10H , thanks.
3.41 kcal/mol

folding stability dG lookup needed for D1F , thanks.
3.9 kcal/mol

folding stability dG lookup needed for G23V , thanks.
2.78 kcal/mol

folding stability dG lookup needed for I42H , thanks.
2.83 kcal/mol

folding stability dG lookup needed for P8M , thanks.
3.81 kcal/mol

folding stability dG lookup needed for S30T , thanks.
3.66 kcal/mol

folding stability dG lookup needed for I5H , thanks.
3.23 kcal/mol
